Data provenance: PubChem BioAssay

Test: small molecules captured by biotinylated probe aFST – biochemical, small-molecule microarray, fluorescence 635/667, stem cell growth factor project, primary screen (AID 1086);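 note: score merges 667 nm fluorescence with signal-to-noise of each printed compound spot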
Conditions: higher = more signal
The following compounds are listed with their measured composite z-score values.
Experimental Endpoint: composite z-score

Compound	Experimental Endpoint	Reported
CCOC(=O)C1=C[C@@H](C(C)(C)C)N(S(=O)(=O)c2ccc(C)cc2)[C@H]1c1ccc(C#N)cc1	composite z-score	0.313
C[C@@H]1ON(c2ccccc2)[C@H](c2ccccc2)[C@H]1C(=O)O	composite z-score	-0.0817
C=CCOC(=O)[C@H]1[C@@H]2C(=O)O[C@@H](c3ccccc3)[C@@H](c3ccccc3)N2[C@@H](c2ccc(OCCOC(=O)[C@@H]3C[C@@H]4C(=O)N[C@@H](CCCC[N+](C)(C)C)C(=O)N4[C@@H]3c3ccc(O)cc3)cc2)[C@]12C(=O)Nc1ccc(I)cc12	composite z-score	0.365
C=C(/C(=C/C[C@@H](OC(C)=O)c1cccc(OCCO)c1)c1cnc2ccccc2c1)C(C)C	composite z-score	0.0752
O=C(NCc1ccccc1)[C@@H]1c2ccccc2C(=O)N(Cc2ccc(OC(F)(F)F)cc2)[C@H]1c1ccc(CO)cc1	composite z-score	0.0209
COC(=O)[C@H](Cc1ccc(O)cc1)N[C@@H](/C=C/C1CC1)[C@H](O)Cc1ccccc1	composite z-score	-0.437
O=C1NC(=O)C2C1C=CC(C(O)c1ccc(B(O)O)cc1)N2Nc1ccc(Cl)cc1Cl (stereo not given)	composite z-score	0.514
[N-]=[N+]=Nc1ccccc1C[C@@]1(C(=O)NCc2ccccc2)N=C(c2ccc(OCCCO)cc2)O[C@@H]1c1ccccc1N=[N+]=[N-]	composite z-score	0.602
CC(C)NC(=O)[C@@H]1c2ccccc2C(=O)N(Cc2ccc(OC(F)(F)F)cc2)[C@H]1c1ccc(CO)cc1	composite z-score	1.35
CC[C@@H]1C=C(C(=O)O)[C@H](c2ccc(OC)cc2)N1S(=O)(=O)c1ccc(C)cc1	composite z-score	0.233
COC(=O)[C@@]1(Cc2ccccc2)[C@H]2c3cc(C(=O)N(C)C)n(CCSC(=N)N)c3C[C@H]2CN1C(=O)c1ccccc1	composite z-score	0.319
CC(C)(C)N1CC=CC23O[C@@H]4C=CCCOC(=O)C4[C@H]2C(=O)N(CCCCCCO)[C@@H]3C1=O (stereo not given in full)	composite z-score	-0.0273
CN(C)c1ccc(C(O)C2C=CC3C(=O)N(Cc4ccccc4)C(=O)C3N2n2cnnc2)cc1 (stereo not given)	composite z-score	0.198
CC1=C([C@H](O)CCc2ccccc2)[C@H](CO)n2c(=O)n(-c3ccccc3)c(=O)n2C1	composite z-score	-0.429
COCCOC(=O)N1C(=O)[C@@]2(c3cc(C#CCCO)ccc31)[C@H](c1ccccc1OCCO)N1[C@H](c3ccccc3)[C@H](c3ccccc3)OC(=O)[C@H]1[C@@H]2C(N)=O	composite z-score	0.806

---

Target: NADPH oxidase 2 (Homo sapiens) (UniProt P04839)
Sequence (P04839 whole entry, looked up): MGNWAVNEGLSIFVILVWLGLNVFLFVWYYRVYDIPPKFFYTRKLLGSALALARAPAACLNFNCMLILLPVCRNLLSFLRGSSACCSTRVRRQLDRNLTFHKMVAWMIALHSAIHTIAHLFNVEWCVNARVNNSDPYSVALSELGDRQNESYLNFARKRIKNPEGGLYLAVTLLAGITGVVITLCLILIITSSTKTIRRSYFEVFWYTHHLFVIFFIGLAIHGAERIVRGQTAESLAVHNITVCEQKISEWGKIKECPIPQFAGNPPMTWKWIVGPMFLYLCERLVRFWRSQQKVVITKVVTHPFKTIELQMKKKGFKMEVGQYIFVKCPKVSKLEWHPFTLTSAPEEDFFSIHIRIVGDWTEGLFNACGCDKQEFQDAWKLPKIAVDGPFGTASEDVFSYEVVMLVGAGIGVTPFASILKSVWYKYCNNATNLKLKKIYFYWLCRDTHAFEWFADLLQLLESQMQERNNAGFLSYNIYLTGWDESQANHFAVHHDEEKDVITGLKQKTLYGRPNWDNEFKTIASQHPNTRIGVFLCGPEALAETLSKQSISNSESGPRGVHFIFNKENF
Assay: compounds shifting NOX2 Amplex Red fluorescence – cell-based, HEK293-NOX2, PMA-stimulated, NOX inhibitor project, primary screen (AID 1159); note: test concentration not given here
Details: 45 min, higher = more signal, called active from +8 up or from −8 down

Compound	z-score
O=C1C[C@@](C(=O)NCc2ccccc2)(c2ccc([N+](=O)[O-])cc2)[C@@H](c2ccc(CO)cc2)N1C1CCCCC1	-0.522
CN1C(=O)C2C(C1=O)C1C=C(c3ccc(CO)cc3)C2C(C2CC2)N1C (configuration not stated)	-1.19
C=CCNC(=O)[C@@H]1[C@H]2C(=O)O[C@H](c3ccccc3)[C@H](c3ccccc3)N2[C@H](c2ccc(OCCO)cc2)[C@@]12C(=O)Nc1ccc(C#CC3(O)CCCCCC3)cc12	0.385
O=C(NC1CC1)[C@@H]1c2ccccc2C(=O)N(CC23CC4CC(CC(C4)C2)C3)[C@H]1c1ccc(CO)cc1	0.507
C[N+](C)(C)CCCCNC(=O)[C@H]1C[C@H]2C(=O)N[C@@H](Cc3ccccc3)C(=O)N2[C@H]1c1cccc(OCCO)c1	-0.423
COC(=O)[C@@]1(Cc2ccccc2)N=C(c2ccc(OCCCO)cc2)O[C@H]1c1ccccc1CN=[N+]=[N-]	-6.02
COC(=O)[C@@]1(Cc2ccccc2)[C@H]2c3cc(C(=O)N4CCCC4)n(Cc4ccc(OC)c(OC)c4)c3C[C@H]2CN1C(=O)c1ccccc1	0.136
